Test system: nasopharyngeal carcinoma CNE-1 cancer cells
assay.notes: MTT assay on nasopharyngeal carcinoma CNE-1 cells
Assay type: cell-based
particulars: 72 h, 5-80 μM, read-out: The inhibitory effect IC50 on CNE-1 cancer cells
value.type: IC50

Q) Request: IC50, test system nasopharyngeal carcinoma CNE-1 cancer cells, entry N.N.[Cl][Pt][Cl] [cis-platin, reference compound]
A) 19.1 µM

----------
Test system: MDA-MB-231 breast cancer cells
assay.notes: MTT assay on MDA-MB-231 breast cancer cells
Format: cell-based
particulars: 72 h, 5-80 μM, read-out: The inhibitory effect IC50 on MDA-MB-231 breast cancer cells
value.type: pIC50
Units for pIC50: none; it is -log10 of a concentration expressed in mol/L.

Q) If you can, please state the reported pIC50 value of N.N.[Cl][Pt][Cl] [cis-platin, reference compound] .
A) 4.75
